Give measured melting point for each item. Keep answers brief.

Query: Fill in the blank: the reported melting point of `CCn1c(Oc2cccc(N3CCN(C)CC3)c2)nnc1C1(NS(=O)(=O)c2ccc(Cl)c(Cl)c2)CC1` is ____.
Reply: 220.5 to 221 °C

Query: Input `CCn1c(Oc2ccc(F)cc2)nnc1[C@@H](C)NS(=O)(=O)c1ccc(C)c(C)c1`
Reply: 176.5 to 178 °C

Query: Let us now turn to `CCn1c(Oc2cccc(N3CCN(C)CC3)c2)nnc1[C@@H](C)NS(=O)(=O)c1ccc(F)c(Cl)c1`
Reply: 152 to 153 °C

Query: Same for `CCn1c(Oc2cccc(N3CCN(C)CC3)c2)nnc1[C@@H](C)NS(=O)(=O)c1ccc(Br)c(Br)c1`
Reply: 171 to 173 °C

Query: What do you have for `CCn1c(Oc2ccc(C)cc2)nnc1[C@@H](C)NS(=O)(=O)c1ccc(Cl)c(Cl)c1` ?
Reply: 183.5 to 187.5 °C

Query: Another: `CCn1c(Oc2cccc(NS(C)(=O)=O)c2)nnc1[C@@H](C)NS(=O)(=O)c1ccc(Cl)c(Cl)c1`
Reply: 117 to 118 °C

Query: Same lookup for `CCn1c(Oc2ccccc2)nnc1[C@@H](Cc1ccccc1)NS(=O)(=O)c1ccc(Cl)c(Cl)c1` , please.
Reply: 182 to 184 °C

Query: Now this one: `CCn1c(Oc2ccccc2Cl)nnc1[C@@H](C)NS(=O)(=O)c1ccc(Cl)c(Cl)c1`
Reply: 180 to 190 °C

Query: // same read-out, input: `CCn1c(Oc2ccc(F)cc2)nnc1[C@@H](C)NS(=O)(=O)c1ccc2c(Cl)cccc2c1`
Reply: 173.5 to 177 °C

Query: Follow-up item: `CCn1c(Oc2cccc(-n3ccnc3)c2)nnc1[C@@H](C)NS(=O)(=O)c1ccc(Cl)c(Cl)c1`
Reply: 133 to 134 °C

Query: Now try `CCn1c(Oc2cccc(N(C(C)C)C(C)C)c2)nnc1[C@@H](C)NS(=O)(=O)c1ccc(Cl)c(Cl)c1` .
Reply: 159 to 162 °C

Query: Next compound up: `CCn1c(Oc2cc(OC)c(OC)c(OC)c2)nnc1[C@@H](C)NS(=O)(=O)c1ccc(Cl)c(Cl)c1`
Reply: 129.5 to 131.5 °C

Query: # iterate: `CCn1c(Oc2ccc(OCCN3CCOCC3)cc2)nnc1[C@@H](C)NS(=O)(=O)c1ccc(Cl)c(Cl)c1`
Reply: 125 to 130 °C

Query: What do we get for `C[C@@H](NS(=O)(=O)c1ccc(Cl)c(Cl)c1)c1nnc(Oc2ccc3cc[nH]c3c2)n1C1CC1` ?
Reply: 253.5 to 254.5 °C

Query: And the next one, `CCn1c(Oc2ccc3ccccc3c2)nnc1[C@@H](C)NS(=O)(=O)c1ccc(Cl)c(Cl)c1` ?
Reply: 176.5 to 179.5 °C

---

molecular target: human Edg-1 (S1P1) (Homo sapiens, UniProt P21453); construct: expressed in transfected cells; host or cells: HEK-293; experiment: S1P1 binding assay: inhibition of [33P]-S1P binding to membrane fraction of HEK-293 cells transferred with the human Edg-1 (S1P1) gene; settings: test compound 10 μM; inhibition of [33P]-S1P binding, membrane fraction
Sequence (P21453 whole entry): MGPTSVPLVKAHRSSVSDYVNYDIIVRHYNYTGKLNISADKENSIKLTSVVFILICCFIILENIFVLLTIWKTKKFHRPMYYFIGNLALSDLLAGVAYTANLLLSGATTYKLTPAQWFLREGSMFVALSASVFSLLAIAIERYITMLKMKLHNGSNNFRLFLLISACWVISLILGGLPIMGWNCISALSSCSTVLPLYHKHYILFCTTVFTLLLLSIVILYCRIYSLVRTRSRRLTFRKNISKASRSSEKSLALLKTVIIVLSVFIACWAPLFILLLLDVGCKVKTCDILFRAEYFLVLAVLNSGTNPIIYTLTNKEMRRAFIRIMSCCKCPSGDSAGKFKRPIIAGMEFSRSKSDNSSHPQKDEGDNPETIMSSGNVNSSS
parameterMeasured: inhibition at 10 µM (%)
Express your answer in %, writing the number without its unit.

Query: Would you kindly share the measured inhibition at 10 µM for `CCn1c(Oc2cccc(N3CCN(C)CC3)c2)nnc1[C@@H](C)NS(=O)(=O)c1ccc2ccc(Cl)cc2c1` ?
Reply: 100

Query: And the next one, `CCn1c(Oc2cccc(N3CCN(C)CC3)c2)nnc1[C@@H](C)NS(=O)(=O)c1c(C)noc1C` ?
Reply: 65.5

Query: Lookup `CCn1c(Oc2cccc(N3CCN(C)CC3)c2)nnc1[C@@H](C)NS(=O)(=O)c1cccc(F)c1`
Reply: 95.8

Query: Same question for `CCn1c(Oc2ccc3cc[nH]c3c2)nnc1[C@@H](C)NS(=O)(=O)c1ccc(Cl)cc1F` please.
Reply: 71.6

---

parameterMeasured: melting point

Query: Item under review: `CCn1c(Oc2cccnc2)nnc1[C@@H](C)NS(=O)(=O)c1ccc(Cl)c(Cl)c1` . Reported melting point?
Reply: 129 to 130 °C

Query: Follow-up entry: `CCn1c(Oc2ccc(Cl)cc2)nnc1[C@@H](C)NS(=O)(=O)c1ccc(Cl)c(Cl)c1`
Reply: 179 to 189.5 °C

Query: Input `CCc1ccc(Oc2nnc([C@@H](C)NS(=O)(=O)c3ccc(Cl)c(Cl)c3)n2CC)cc1`
Reply: 172.5 to 173 °C

Query: How about this molecule: `CCn1c(Oc2cccc(N3CCN(C)CC3)c2)nnc1[C@@H](C)NS(=O)(=O)c1ccc(Cl)c(Cl)c1Cl`
Reply: 144 to 145 °C

Query: Now try `CCn1c(Oc2cccc(N3CCN(C)CC3)c2)nnc1[C@@H](C)NS(=O)(=O)/C=C/c1ccccc1` .
Reply: 121 to 122 °C

Query: Could you do the same for `CCNC(=O)Nc1cccc(Oc2nnc([C@@H](C)NS(=O)(=O)c3ccc(Cl)c(Cl)c3)n2CC)c1` , please?
Reply: 118 to 120 °C

Query: Now this one: `CCn1c(Oc2ccc3cc[nH]c3c2)nnc1[C@@H](C)NS(=O)(=O)c1ccc(C(F)(F)F)cc1`
Reply: 100 to 106 °C

Query: And for `Cc1ccc(Oc2nnc([C@@H](C)NS(=O)(=O)c3ccc(Cl)c(Cl)c3)n2C(C)C)cc1` ?
Reply: 192.5 to 195 °C

Query: Another: `CCn1c(Oc2ccccc2C)nnc1[C@@H](C)NS(=O)(=O)c1ccc(Cl)c(Cl)c1`
Reply: 198.5 to 200.5 °C

Query: Another: `CCn1c(Oc2ccc(N3CCCCC3)cc2)nnc1[C@@H](C)NS(=O)(=O)c1ccc(Cl)c(Cl)c1`
Reply: 195.5 to 196.5 °C

Query: Then `CCn1c(Oc2ccc(OC)c(OC)c2)nnc1[C@@H](C)NS(=O)(=O)c1ccc(Cl)c(Cl)c1` ?
Reply: 125 to 127 °C

Query: Please do the same for `CCn1c([C@@H](C)NS(=O)(=O)c2ccc(Cl)c(Cl)c2)nnc1S(=O)(=O)c1ccc(C)cc1` as well.
Reply: 164 to 165 °C

Query: Now consider `CCn1c(Oc2cccc(N3CCN(CCN(C)C)CC3)c2)nnc1[C@@H](C)NS(=O)(=O)c1ccc(Cl)c(Cl)c1` .
Reply: 170 to 173 °C

Query: Repeat with `CCn1c(Oc2ccc(-n3cccc3)cc2)nnc1[C@@H](C)NS(=O)(=O)c1ccc(Cl)c(Cl)c1`
Reply: 163 to 168 °C

Query: What about `CCn1c(Oc2ccccn2)nnc1[C@@H](C)NS(=O)(=O)c1ccc(Cl)c(Cl)c1` ?
Reply: 172 to 173 °C

---

Could you please report measured inhibition at 10 µM for the items listed next?
target: human Edg-1 (S1P1) (Homo sapiens, UniProt P21453); construct: expressed in transfected cells; host or cells: HEK-293; experiment: S1P1 binding assay: inhibition of [33P]-S1P binding to membrane fraction of HEK-293 cells transferred with the human Edg-1 (S1P1) gene; settings: test compound at 10 μM; inhibition of [33P]-S1P binding to the membrane fraction of HEK-293 cells expressing human Edg-1 (S1P1)
A number alone suffices; assume %.

Query: Fill blank: measured inhibition at 10 µM of the molecule `CCn1c(Oc2cccc(N3CCC4(CC3)OCCO4)c2)nnc1[C@@H](C)NS(=O)(=O)c1ccc(Cl)c(Cl)c1` is ____.
Reply: 99.9

Query: // repeat for `CCn1c(Oc2ccc3cc[nH]c3c2)nnc1[C@@H](C)NS(=O)(=O)c1ccc(OC(F)(F)F)cc1` and report
Reply: 95.1

Query: Item: `CCn1c(Oc2ccccc2Cl)nnc1[C@@H](C)NS(=O)(=O)c1ccc(Cl)c(Cl)c1`
Reply: 98.2

Query: Here is the next molecule: `CCc1cc(Br)ccc1S(=O)(=O)N[C@H](C)c1nnc(Oc2ccc(F)cc2)n1CC`
Reply: 50.6

Query: Same for `CCn1c(Oc2ccc(F)cc2)nnc1[C@@H](C)NS(=O)(=O)c1cc(Cl)ccc1F`
Reply: 53.5

Query: Also, `CCn1c(Oc2ccc3cc[nH]c3c2)nnc1[C@@H](C)NS(=O)(=O)c1cccc(C(F)(F)F)c1` please.
Reply: 101

Query: Please do the same for `CCn1c(Oc2ccc(F)cc2)nnc1[C@@H](C)NS(=O)(=O)c1cccc(C(C)=O)c1` as well.
Reply: 60.2

Query: // next record `CCn1c(Oc2cccc(N3CCC(O)CC3)c2)nnc1[C@@H](C)NS(=O)(=O)c1ccc(Cl)c(Cl)c1`
Reply: 99.9

Query: Then `CCn1c(Oc2ccc(F)cc2)nnc1[C@@H](C)NS(=O)(=O)c1cc(F)c(F)cc1Cl` ?
Reply: 82.5

Query: Cool, now `CCn1c(Oc2ccc(F)cc2)nnc1[C@@H](C)NS(=O)(=O)c1c(F)c(F)c(F)c(F)c1F`
Reply: 50.4

Query: Would you mind doing `CCn1c(Oc2ccc(Cl)cc2)nnc1[C@@H](C)NS(=O)(=O)c1ccc2c(Cl)cccc2c1` as well?
Reply: 101

Query: Try this molecule next: `CCn1c(Oc2ccc(-c3ccccc3)cc2)nnc1[C@@H](C)NS(=O)(=O)c1ccc(Cl)c(Cl)c1`
Reply: 101

Query: Entry to check: `CCn1c(Oc2ccc3cc[nH]c3c2)nnc1[C@@H](C)NS(=O)(=O)c1c(C)cc(C)cc1C`
Reply: 50.1

Query: Another molecule to check: `CCn1c(Oc2ccc3cc[nH]c3c2)nnc1[C@@H](C)NS(=O)(=O)c1ccc(C(C)(C)C)cc1`
Reply: 81.6

Query: Try this molecule too: `Cc1ccc(Oc2nnc([C@@H](C)NS(=O)(=O)c3ccc(Cl)c(Cl)c3)n2C)cc1`
Reply: 99.7
